Values compiled from ChEMBL document CHEMBL2218924.

# tested-on: Protein kinase C zeta type (Homo sapiens) (UniProt Q05513)
# Sequence (Q05513 whole entry): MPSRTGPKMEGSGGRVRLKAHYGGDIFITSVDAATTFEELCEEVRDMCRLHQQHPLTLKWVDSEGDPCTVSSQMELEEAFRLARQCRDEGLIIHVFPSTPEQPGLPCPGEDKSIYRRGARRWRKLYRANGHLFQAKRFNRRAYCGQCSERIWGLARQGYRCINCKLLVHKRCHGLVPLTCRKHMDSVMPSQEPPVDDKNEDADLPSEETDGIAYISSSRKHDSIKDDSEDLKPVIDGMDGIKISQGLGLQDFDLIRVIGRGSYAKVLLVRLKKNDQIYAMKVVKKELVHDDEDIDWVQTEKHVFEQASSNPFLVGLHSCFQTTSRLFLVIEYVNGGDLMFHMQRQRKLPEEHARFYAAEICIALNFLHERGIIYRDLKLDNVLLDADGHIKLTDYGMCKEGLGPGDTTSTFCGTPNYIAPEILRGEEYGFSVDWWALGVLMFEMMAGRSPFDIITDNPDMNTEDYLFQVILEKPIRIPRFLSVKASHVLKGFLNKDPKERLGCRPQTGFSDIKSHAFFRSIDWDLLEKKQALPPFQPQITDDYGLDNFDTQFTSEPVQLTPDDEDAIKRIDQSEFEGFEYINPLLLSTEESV
# test-settings: at 1 µM
measurement-name: residual activity (%)
One number for each entry, in %.

| input-smiles | tested-on | val |
| --- | --- | --- |
| Oc1ccc(-c2nc(-c3ccc(F)cc3)c(-c3ccncc3)[nH]2)cc1 | Protein kinase C zeta type (Homo sapiens) (UniProt Q05513) | 113 |
| CCN(CC)CCCCN1c2ccccc2Oc2ccc(Cl)cc21 | Protein kinase C zeta type (Homo sapiens) (UniProt Q05513) | 114 |
| COc1cc2ncnc(Nc3ccc(Oc4ccccc4)cc3)c2cc1OC | Protein kinase C zeta type (Homo sapiens) (UniProt Q05513) | 108 |
| c1ccc(-c2n[nH]c3c2oc2ccccc23)cc1 | Protein kinase C zeta type (Homo sapiens) (UniProt Q05513) | 99 |
| Oc1n[nH]c2nnc(-c3c(-c4ccccc4)nn4ccccc34)cc12 | Protein kinase C zeta type (Homo sapiens) (UniProt Q05513) | 107 |

Hello, I would appreciate it if you could give residual activity for each entry below.
1. CO[C@@H]1[C@H](N(C)C(=O)c2ccccc2)C[C@H]2O[C@]1(C)n1c3ccccc3c3c4c(c5c6ccccc6n2c5c31)C(=O)NC4
2. CN(C)CCCn1cc(C2=C(c3c[nH]c4ccccc34)C(=O)NC2=O)c2ccccc21
3. COc1cc2ncnc(N3CCN(C(=O)Nc4ccc(Oc5ccccc5)cc4)CC3)c2cc1OC
4. O=C1Nc2cc(Br)ccc2/C1=C1/Nc2ccccc2/C1=N\O
5. COc1ccc(CNc2nc(N(CCO)CCO)nc3c2ncn3C(C)C)cc1

Output:
1. 101
2. 72
3. 113
4. 103
5. 105

Here are 2 compounds. What values of residual activity were reported for them?
1. Cc1nc(-c2ccccc2)c(-c2ccncc2)o1
2. O=[N+]([O-])c1ccc(-c2nc(-c3ccc(F)cc3)c(-c3ccncc3)[nH]2)cc1

Output:
113
113
